experiment: Partition coefficient, log P of the compound; type: physicochemical; details: octanol/water
Decision: logP >= 3 yields YES, all other cases yield NO.

For this compound, is measured logP 3 or higher? C=CCc1ccc(OC(=O)c2ccccc2F)c(OC)c1
NO

For this compound, is measured logP 3 or higher? C=CCc1ccc(OC(=O)c2cccc(Cl)c2)c(OC)c1
NO

For this compound, is measured logP 3 or higher? C=CCc1ccc(OC(=O)c2ccccc2)c(OC)c1 [EUGENYL BENZOAT]
NO

For this compound, is measured logP 3 or higher? C=CCc1ccc(OC(=O)C2CCCCC2)c(OC)c1
YES

For this compound, is measured logP 3 or higher? C=CCc1ccc(OC(=O)c2ccccc2C)c(OC)c1
NO
